Below, each entry is listed with its recorded inhibition.
- EXPERIMENTAL_DETAILS: 384-well plate pilot, post-Golgi transport modulator project, inhibition of yeast transport mutant growth (AID 636); note: test concentration not given here
- ASSAY_CONTEXT: absorbance 615 nm, about 18 h, active compounds read high
Output spec: scalar in %, unitless text.

Below, 5 compounds whose answers are already recorded.
Briefly, inhibition measured for `O=C(Nc1ccc2nn(-c3ccccc3)nc2c1)c1ccc(Br)o1` : -7.43

Quick note, inhibition for `COc1ccc(S(=O)(=O)Nc2cc(C)on2)cc1OC` landed at -1.1

In plain terms, `COc1cccc(OCCSc2nnc3sc4ccccc4n23)c1` has a documented inhibition of 2.73

Item: `CCOc1ccc2c(O)csc2c1` | inhibition: 0.13

Query `CCOC(=O)c1cc(-c2ccc(Cl)s2)nc2c1c(C)nn2C` yields inhibition of -1.45

Continuing:
`O=C1c2ccccc2-c2ccc(C(=O)N3CCOCC3)cc21` has a reported inhibition of -2.7

Form field inhibition, entry `O=C(NCc1cccs1)c1cc2c(s1)CS(=O)(=O)C2` : -4

So, `CC(=O)Nc1ccc(S(=O)(=O)NCc2csc(-c3cccnc3)n2)cc1` ? Its inhibition was -1.69

Per the record, `COc1ccc(S(=O)(=O)NCc2ccc(C(=O)O)cc2)cc1` has inhibition of -3.77
